Molecular target: PLU1 (KDM5B) (Homo sapiens)
Construct: 1-809; host or cells: E. coli
Sequence (Q9UGL1 1-809): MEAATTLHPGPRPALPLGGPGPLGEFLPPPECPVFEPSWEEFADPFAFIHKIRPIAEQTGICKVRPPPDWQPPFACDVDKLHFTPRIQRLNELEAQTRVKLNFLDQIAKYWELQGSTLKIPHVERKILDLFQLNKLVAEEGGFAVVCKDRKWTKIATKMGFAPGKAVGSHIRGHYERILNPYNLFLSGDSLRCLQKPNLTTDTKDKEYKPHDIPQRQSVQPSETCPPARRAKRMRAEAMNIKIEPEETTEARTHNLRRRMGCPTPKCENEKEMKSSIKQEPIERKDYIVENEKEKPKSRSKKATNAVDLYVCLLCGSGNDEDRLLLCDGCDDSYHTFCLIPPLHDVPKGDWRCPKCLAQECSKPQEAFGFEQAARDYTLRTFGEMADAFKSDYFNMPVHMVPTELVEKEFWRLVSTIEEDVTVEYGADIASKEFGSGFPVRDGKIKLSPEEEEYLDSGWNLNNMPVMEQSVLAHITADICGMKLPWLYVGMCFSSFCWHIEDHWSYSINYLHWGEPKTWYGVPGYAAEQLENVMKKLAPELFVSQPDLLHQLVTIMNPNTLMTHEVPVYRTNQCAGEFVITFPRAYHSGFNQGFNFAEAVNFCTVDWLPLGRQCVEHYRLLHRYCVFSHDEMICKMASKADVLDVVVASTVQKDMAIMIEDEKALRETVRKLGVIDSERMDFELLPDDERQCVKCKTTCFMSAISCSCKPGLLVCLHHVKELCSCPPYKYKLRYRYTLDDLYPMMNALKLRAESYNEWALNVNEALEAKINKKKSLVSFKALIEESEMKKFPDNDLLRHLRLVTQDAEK
Assay: Histone lysine demethylase AlphaLISA assay, PLU1
Type: biochemical
Settings: substrate H3K4M3B
Experimental: Example 2: Histone Lysine Demethylase AlphaLISA Assays for IC50 Value Determination Assays are performed analogously to the protocol described by Perkin Elmer (Roy et al. Perkin Elmer Technical Note: AlphaLISA #12, April 2011). Enzymes are dissolved in enzyme buffer and incubated for 10 min before 5 μL is added to 5 μL 3% DMSO solutions of compounds in enzyme buffer. […] After incubation at room temperature in the dark the plates are read. […]
Property name: IC50

Please review the following examples before continuing.
# input Entry CCCCN1CCCC1CCNCc1cc(C(=O)O)ccn1 (stereo not shown) [#34] , system PLU1 (KDM5B) (Homo sapiens): what IC50 was measured?
# output < 100 nM

# input Reported IC50 for PLU1 (KDM5B) (Homo sapiens), given O=C(O)c1ccnc(CNC[C@@H](O)CO)c1 [#3] ?
# output < 100 nM

# input Item: CN1CCN(Cc2ccc(CN(C)C(=O)CNCc3cc(C(=O)O)ccn3)cc2)CC1 [#42] Test system: PLU1 (KDM5B) (Homo sapiens) Read-out: IC50 Value: ?
# output < 100 nM

# input Missing value: IC50, PLU1 (KDM5B) (Homo sapiens), entry CCN(CCN(C)C)C(=O)CNCc1cc(C(=O)Oc2c(OC(C)C)cccc2OC(C)C)ccn1 [#85] . Fill in?
# output 100 to 1000 nM

# input Lookup: IC50 / PLU1 (KDM5B) (Homo sapiens) / CCCCN(C)C(=O)CNCc1cc(C(=O)O)ccn1 [#14]
# output < 100 nM

# input Please tell me: IC50 of CCOC(=O)c1ccnc(CNCC(=O)N(CC)CCN(C)C)c1 [#65] , system PLU1 (KDM5B) (Homo sapiens)?
# output 100 to 1000 nM

Let's switch to this molecule now.
# input For the record COC(=O)c1ccnc(CNCCCN2CCCC2)c1 [#47] , what value of IC50 is listed for PLU1 (KDM5B) (Homo sapiens)?
# output 100 to 1000 nM
